B1: SOAT2 (parent)
chain: SLGKQKVFIIRKSLLDELMEVQHF

Variants of: B1
protocolText: protein stability index of a GFP-peptide fusion (GPS, HEK-293T) (PSI 1-6); higher = more stable;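 also: lentivirally expressed fusions sorted by FACS into six bins by GFP to DsRed ratio, PSI derived from sequencing read proportions per bin multiplied by bin number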
testContext: c terminus: a fixed tail appended
Please go through the items and note down their protein stability index.
Format: numeric value only, no unit, no commentary.

Look at this variant and give its reported protein stability index. F24N 1.9

Try the variant L18M 1.7

Try the variant V7R 2.16

Try the variant I9E 1.76

Try the variant R11Q 2.54

Try the variant V7A 1.72

Try the variant G3T 2.83

Try the variant M19W 2.41

Try the variant K4I 2.17

Try the variant F8G 1.93

Try the variant L18F 1.41

Try the variant E17C 3.21

Try the variant G3M 3.27

Try the variant E20K 2.57

Try the variant Q5D 2.01

Try the variant I10L 2.38

Try the variant I10Y 1.48

Try the variant E20L 3.13

Try the variant F24A 1.8

Try the variant I9W 3.62

Try the variant E20P 1.45

Try the variant I10E 1.47

Try the variant M19T 1.74

Try the variant H23T 2.07

Try the variant H23C 2.69

Try the variant I10R 1.69

Try the variant K4R 2.29

Try the variant I10G 1.91

Try the variant L14Y 2.03

Try the variant K4P 1.74

Try the variant D16H 2.86

Try the variant E20T 2.8

Try the variant H23G 1.86

Try the variant Q22F 2.2
